Test system: dietetic-medicamentous hyperlipemia of male rats
Experimental Details: Action on the dietetic-medicamentous hyperlipemia of male rats
Type: in vivo
Assay Setup: Rattus norvegicus, po, 192 h; 100 mg/kg/day p.o., 8 days, male rats on cholesterol diet; read-out: serum lipid phosphorus, change in percentage as compared to the control group
Protocol: All the animals were fed with a diet food containing 2% of cholesterol, 2% of sodium cholate, 0.3% of methyl-thiouracil, 20% of coco fat and 44% of cane sugar. […] The lipid phosphorus was determined according to the method of Messrs. […]
Quantity Kind: change in vivo at 100 mg/kg (%)
Answer format: numeric, % implied, no suffix.

{"columns": ["Molecule", "Unit Symbol", "Endpoint Value"],
 "data": [
  ["CCOC(=O)C(C)(C)Oc1ccc(Cl)cc1 [Clofibrat, reference compound]", "%", -12],
  ["CC(C)(C)c1cc(C(C(=O)O)c2ccc(O)c(C(C)(C)C)c2)ccc1O", "%", -25],
  ["CC(CCC(=O)O)(c1ccc(O)cc1)c1ccc(O)cc1 [Example 19, 4,4-Bis(4'-hydroxy-phenyl)pentanoic acid]", "%", -17]
]}

Let us examine a further case.
Quick check: change in vivo at 100 mg/kg of `CC(C)(C)c1cc(C(C)(CC(=O)O)c2ccc(O)c(C(C)(C)C)c2)ccc1O` ?
-9

====

Tested on: normolipemic rats
Experimental Details: Reduction of serum lipid values in normolipemic rats (8 days oral)
Type: in vivo, rat
Assay Setup: 100 mg/kg/day p.o., 8 doses, male rats, column A
Assign labels as follows, please: True for serum cholesterol, change in percentage (A: referred to the initial value) below -40%; False for serum cholesterol, change in percentage (A: referred to the initial value) equal to or exceeding -40%.

{"columns": ["Compound", "Assigned Category"],
 "data": [
  ["CC(C)(C)c1cc(C(C)(CC(=O)OCCOC(=O)CC(C)(c2ccc(O)c(C(C)(C)C)c2)c2ccc(O)c(C(C)(C)C)c2)c2ccc(O)c(C(C)(C)C)c2)ccc1O", "False"]
]}

Next compound, please.
Check if serum cholesterol, change in percentage (A: referred to the initial value) falls below -40% for `CCCCOC(=O)CC(C)(c1ccc(O)c(C)c1)c1ccc(O)c(C)c1` .
True

====

Test system: normolipemic rats
Experimental Details: Reduction of serum lipid values in normolipemic rats (8 days oral)
Assay type: in vivo, rat
Assay Setup: 30 mg/kg/day p.o., 8 doses, male rats, column A
In this section, each of the molecules is paired with its reported serum cholesterol, change in percentage (A: referred to the initial value).
Answer format: numeric, % implied, no suffix.

// solved cases for serum cholesterol, change in percentage (A: referred to the initial value) follow
{"columns": ["Smiles Representation", "Endpoint Value"],
 "data": [
  ["CC(C)(C)c1cc(C(C(=O)O)c2cc(C(C)(C)C)c(O)c(C(C)(C)C)c2)cc(C(C)(C)C)c1O", -32],
  ["CC(C)(C)c1cc(C(C)(CC(=O)OCCOC(=O)CC(C)(c2ccc(O)c(C(C)(C)C)c2)c2ccc(O)c(C(C)(C)C)c2)c2ccc(O)c(C(C)(C)C)c2)ccc1O", -10],
  ["CCCCOC(=O)CC(C)(c1ccc(O)c(C)c1)c1ccc(O)c(C)c1", -14]
]}

Quick check: serum cholesterol, change in percentage (A: referred to the initial value) of `CCCCOC(=O)CCC(C)(c1ccc(O)c(C(C)(C)C)c1)c1ccc(O)c(C(C)(C)C)c1` ?
-13

====

In this section, each of the compounds is paired with its reported change in vivo at 100 mg/kg.
Test system: dietetic-medicamentous hyperlipemia of male rats
Experimental Details: Action on the dietetic-medicamentous hyperlipemia of male rats
Format: in vivo
Assay Setup: Rattus norvegicus, po, 192 h; 100 mg/kg/day p.o., 8 days, male rats on cholesterol diet; read-out: serum lipid phosphorus, change in percentage as compared to the control group
Answer format: numeric, % implied, no suffix.

{"columns": ["Smiles Representation", "Test System", "Quantity Kind", "Endpoint Value"],
 "data": [
  ["CC(C)(C)c1cc(C(C(=O)O)c2cc(C(C)(C)C)c(O)c(C(C)(C)C)c2)cc(C(C)(C)C)c1O", "dietetic-medicamentous hyperlipemia of male rats", "change in vivo at 100 mg/kg", -26],
  ["CC(C)(C)c1cc(C(C)(CCC(=O)OCCOC(=O)CCC(C)(c2ccc(O)c(C(C)(C)C)c2)c2ccc(O)c(C(C)(C)C)c2)c2ccc(O)c(C(C)(C)C)c2)ccc1O", "dietetic-medicamentous hyperlipemia of male rats", "change in vivo at 100 mg/kg", -37],
  ["CCCCOC(=O)CC(C)(c1ccc(O)c(C)c1)c1ccc(O)c(C)c1", "dietetic-medicamentous hyperlipemia of male rats", "change in vivo at 100 mg/kg", -37]
]}

Form field: change in vivo at 100 mg/kg recorded for `CC(C)(C)c1cc(C(C)(CCC(=O)O)c2ccc(O)c(C(C)(C)C)c2)ccc1O` with dietetic-medicamentous hyperlipemia of male rats (enter value)
-25

Form field: change in vivo at 100 mg/kg recorded for `Cc1cc(C(C)(CC(=O)O)c2ccc(O)c(C)c2)ccc1O` with dietetic-medicamentous hyperlipemia of male rats (enter value)
-15

Form field: change in vivo at 100 mg/kg recorded for `CCCCOC(=O)CC(C)(c1ccc(O)c(C(C)(C)C)c1)c1ccc(O)c(C(C)(C)C)c1` with dietetic-medicamentous hyperlipemia of male rats (enter value)
-30

Form field: change in vivo at 100 mg/kg recorded for `CCCCOC(=O)CCC(C)(c1ccc(O)c(C(C)(C)C)c1)c1ccc(O)c(C(C)(C)C)c1` with dietetic-medicamentous hyperlipemia of male rats (enter value)
-53

====

Experimental Details: in vivo
Assay Setup: mouse, po
In this section, each of the compounds is paired with its reported LD50.
Answer format: numeric, mg/kg implied, no suffix.

{"columns": ["Smiles Representation", "Endpoint Value"],
 "data": [
  ["CC(C)(C)c1cc(C(C)(CC(=O)O)c2ccc(O)c(C(C)(C)C)c2)ccc1O", 2000]
]}

Quick check: LD50 of `CC(C)(C)c1cc(C(C)(CC(=O)OCCOC(=O)CC(C)(c2cc(Br)c(O)c(C(C)(C)C)c2)c2cc(Br)c(O)c(C(C)(C)C)c2)c2cc(Br)c(O)c(C(C)(C)C)c2)cc(Br)c1O` ?
4090

Quick check: LD50 of `CC(C)(C)c1cc(C(C)(CCC(=O)O)c2ccc(O)c(C(C)(C)C)c2)ccc1O` ?
4000

====

Test system: normolipemic rats
Experimental Details: Reduction of serum lipid values in normolipemic rats (8 days oral)
Assay type: in vivo, rat
Assay Setup: 100 mg/kg/day p.o., 8 doses, male rats, column B
Assign labels as follows, please: Condition met for serum triglyceride, change in percentage (B: referred to the untreated control group) below -20%; Condition not met for serum triglyceride, change in percentage (B: referred to the untreated control group) equal to or exceeding -20%.

Record excerpt, results attached:
{"columns": ["Molecule", "Assigned Category"],
 "data": [
  ["CC(C)(C)c1cc(C(C)(CC(=O)OCCOC(=O)CC(C)(c2ccc(O)c(C(C)(C)C)c2)c2ccc(O)c(C(C)(C)C)c2)c2ccc(O)c(C(C)(C)C)c2)ccc1O [Example 16]", "Condition met"],
  ["CC(C)(C)c1cc(C(C)(CCC(=O)OCCOC(=O)CCC(C)(c2ccc(O)c(C(C)(C)C)c2)c2ccc(O)c(C(C)(C)C)c2)c2ccc(O)c(C(C)(C)C)c2)ccc1O [Example 18]", "Condition not met"],
  ["CCCCOC(=O)CCC(C)(c1ccc(O)c(C(C)(C)C)c1)c1ccc(O)c(C(C)(C)C)c1 [Example 15]", "Condition not met"],
  ["CCCCOC(=O)CC(C)(c1ccc(O)c(C(C)(C)C)c1)c1ccc(O)c(C(C)(C)C)c1 [Example 7]", "Condition met"]
]}

Check if serum triglyceride, change in percentage (B: referred to the untreated control group) falls below -20% for CCOC(=O)C(C)(C)Oc1ccc(Cl)cc1 [Clofibrat, reference compound] .
Condition met

Check if serum triglyceride, change in percentage (B: referred to the untreated control group) falls below -20% for CC(C)(C)c1cc(C(C(=O)O)c2cc(C(C)(C)C)c(O)c(C(C)(C)C)c2)cc(C(C)(C)C)c1O [Example 3] .
Condition met

====

Experimental Details: in vivo
Assay Setup: mouse, po
In this section, each of the molecules is paired with its reported LD50.
Answer format: numeric, mg/kg implied, no suffix.

{"columns": ["Smiles Representation", "Unit Symbol", "Endpoint Value"],
 "data": [
  ["CCCCNC(=O)CC(C)(c1ccc(O)c(C(C)(C)C)c1)c1ccc(O)c(C(C)(C)C)c1", "mg/kg", 8000]
]}

Let us examine a further case.
Quick check: LD50 of `CC(C)(C)c1cc(C(C)(CCC(=O)OCCOC(=O)CCC(C)(c2ccc(O)c(C(C)(C)C)c2)c2ccc(O)c(C(C)(C)C)c2)c2ccc(O)c(C(C)(C)C)c2)ccc1O` ?
4340
